The origin of these recorded values is patent US20220409619A1.

This section presents compounds with their documented CC50 at 4 days values.
assay: Compound cytotoxicity, XTT-based colorimetric assay; assay type: cell-based; conditions: human; uninfected MT2 cells, day 4, XTT-based colorimetric assay

// below: answered compounds
>>> endpoint_result("Cc1ccnc(-c2cc(=O)n(-c3ccc(Cl)c4c(NS(=O)(=O)C5CC5)nn(CC(F)F)c34)c([C@H](Cc3cc(F)cc(F)c3)NC(=O)Cn3nc(C(F)F)c4c3C(F)(F)[C@@H]3C[C@H]43)n2)n1 (atropisomer, axis not shown; (aR))")
"> 100 nM"
>>> endpoint_result("COC(C)(C)CCc1cc(=O)n(-c2ccc(Cl)c3c(NS(C)(=O)=O)nn(C)c23)c([C@H](Cc2cc(F)cc(F)c2)NC(=O)Cn2nc(C(F)F)c3c2C(F)(F)[C@@H]2C[C@H]32)n1 (atropisomer, axis not shown; (P))")
"> 100 nM"
>>> endpoint_result("Cn1nc(NS(C)(=O)=O)c2c(Cl)ccc(-n3c([C@H](Cc4cc(F)cc(F)c4)NC(=O)Cn4nc(C(F)F)c5c4C(F)(F)[C@@H]4C[C@H]54)nc(-c4ccccc4)cc3=O)c21 (atropisomer, axis not shown; (aR))")
"> 500 nM"

# input for lookup
Request: Entry CC(C)(C#Cc1cc(=O)n(-c2ccc(Cl)c3c(NS(=O)(=O)C4CC4)nn(CC(F)F)c23)c([C@H](Cc2cc(F)cc(F)c2)NC(=O)Cn2nc(C(F)(F)F)c3c2C(F)(F)[C@@H]2C[C@H]32)n1)S(C)(=O)=O (atropisomer, axis not shown; (P)) : reported CC50 at 4 days = ?
Result: > 100 nM

----------
This section presents compounds with their documented CC50 at 4 days values.
experiment: Compound cytotoxicity, XTT-based colorimetric assay; type: cell-based; settings: human; uninfected MT2 cells, day 4, XTT-based colorimetric assay

>>> endpoint_result("Cn1nc(NS(C)(=O)=O)c2c(Cl)ccc(-n3c([C@H](Cc4cc(F)cc(F)c4)NC(=O)Cn4nc(C(F)F)c5c4C(F)(F)[C@@H]4C[C@H]54)nc(-c4ccc(Cl)cn4)cc3=O)c21 (atropisomer, axis not shown; (P))")
"> 100 nM"

Request: Entry CCOc1cnc(-c2cc(=O)n(-c3ccc(Cl)c4c(NS(C)(=O)=O)nn(C)c34)c([C@H](Cc3cc(F)cc(F)c3)NC(=O)Cn3nc(C(F)F)c4c3C(F)(F)[C@@H]3C[C@H]43)n2)nc1 (atropisomer, axis not shown; (aR)) : reported CC50 at 4 days = ?
Result: > 100 nM

----------
This section presents compounds with their documented CC50 at 4 days values.
experiment: Compound cytotoxicity, XTT-based colorimetric assay; format: cell-based; settings: human; uninfected MT2 cells, day 4, XTT-based colorimetric assay

// below: answered compounds
>>> endpoint_result("Cc1ccnc(-c2cc(=O)n(-c3ccc(Cl)c4c(NS(C)(=O)=O)nn(C)c34)c([C@H](Cc3cc(F)cc(F)c3)NC(=O)Cn3nc(C(F)F)c4c3C(F)(F)[C@@H]3C[C@H]43)n2)c1 (atropisomer, axis not shown; (P)) [Example 16]")
"> 100 nM"
>>> endpoint_result("O=C(Cn1nc(C(F)(F)F)c2c1C(F)(F)[C@@H]1C[C@H]21)N[C@@H](Cc1cc(F)cc(F)c1)c1nc(-c2nccc(C(F)F)n2)cc(=O)n1-c1ccc(Cl)c2c(NS(=O)(=O)C3CC3)nn(CC(F)F)c12 (atropisomer, axis not shown; (aR)) [Example 32]")
"> 100 nM"

# input for lookup
Request: Entry CCOc1ccc(-c2cc(=O)n(-c3ccc(Cl)c4c(NS(C)(=O)=O)nn(C)c34)c([C@H](Cc3cc(F)cc(F)c3)NC(=O)Cn3nc(C(F)F)c4c3C(F)(F)[C@@H]3C[C@H]43)n2)cn1 (atropisomer, axis not shown; (P)) [Example 22] : reported CC50 at 4 days = ?
Result: > 100 nM

----------
assay: Compound cytotoxicity, XTT-based colorimetric assay; type: cell-based; conditions: human; uninfected MT2 cells, day 4, XTT-based colorimetric assay
measured-endpoint: CC50 at 4 days

>>> endpoint_result("COc1cncc(-c2cc(=O)n(-c3ccc(Cl)c4c(NS(=O)(=O)C5CC5)nn(CC(F)F)c34)c([C@H](Cc3cc(F)cc(F)c3)NC(=O)Cn3nc(C(F)F)c4c3C(F)(F)[C@@H]3C[C@H]43)n2)n1 (atropisomer, axis not shown; (P))")
"> 100 nM"

Request: Entry CC(F)(F)Cn1ccc(-c2cc(=O)n(-c3ccc(Cl)c4c(NS(=O)(=O)C5CC5)nn(CC(F)F)c34)c([C@H](Cc3cc(F)cc(F)c3)NC(=O)Cn3nc(C(F)F)c4c3C(F)(F)[C@@H]3C[C@H]43)n2)n1 (atropisomer, axis not shown; (P)) : reported CC50 at 4 days = ?
Result: > 100 nM

Request: Entry Cn1nc(NS(C)(=O)=O)c2c(Cl)ccc(-n3c([C@@H](Cc4cc(F)cc(F)c4)NC(=O)Cn4nc(C(F)F)c5c4C(F)(F)[C@@H]4C[C@H]54)nc(-c4ccccc4)cc3=O)c21 (atropisomer, axis not shown; (aR)) : reported CC50 at 4 days = ?
Result: > 500 nM

Request: Entry O=C(Cn1nc(C(F)F)c2c1C(F)(F)[C@@H]1C[C@H]21)N[C@@H](Cc1cc(F)cc(F)c1)c1nc(-c2ccc(Cl)cn2)cc(=O)n1-c1ccc(Cl)c2c(NS(=O)(=O)C3CC3)nn(CC(F)F)c12 (atropisomer, axis not shown; (P)) : reported CC50 at 4 days = ?
Result: > 100 nM

----------
test: Compound cytotoxicity, XTT-based colorimetric assay; type: cell-based; details: human; uninfected MT2 cells, day 4, XTT-based colorimetric assay
This section presents compounds with their documented CC50 at 4 days values.

>>> endpoint_result("Cc1cc(C)nc(-c2cc(=O)n(-c3ccc(Cl)c4c(NS(=O)(=O)C5CC5)nn(CC(F)F)c34)c([C@H](Cc3cc(F)cc(F)c3)NC(=O)Cn3nc(C(F)F)c4c3C(F)(F)[C@@H]3C[C@H]43)n2)n1 (atropisomer, axis not shown; (aR))")
"> 100 nM"

# input for lookup
Request: Entry CCOc1cnc(-c2cc(=O)n(-c3ccc(Cl)c4c(NS(=O)(=O)C5CC5)nn(CC(F)F)c34)c([C@H](Cc3cc(F)cc(F)c3)NC(=O)Cn3nc(C(F)F)c4c3C(F)(F)[C@@H]3C[C@H]43)n2)nc1 (atropisomer, axis not shown; (aR)) : reported CC50 at 4 days = ?
Result: > 100 nM

----------
This section presents molecules with their documented CC50 at 4 days values.
experiment: Compound cytotoxicity, XTT-based colorimetric assay; format: cell-based; conditions: human; uninfected MT2 cells, day 4, XTT-based colorimetric assay

>>> endpoint_result("COC(C)(C)C#Cc1cc(=O)n(-c2ccc(Cl)c3c(NS(=O)(=O)C4CC4)nn(CC(F)F)c23)c([C@H](Cc2cc(F)cc(F)c2)NC(=O)Cn2nc(C(F)(F)F)c3c2C(F)(F)[C@@H]2C[C@H]32)n1 (atropisomer, axis not shown; (P)) [Example 45]")
"> 100 nM"

# input for lookup
Request: Entry Cn1nc(NS(C)(=O)=O)c2c(Cl)ccc(-n3c([C@H](Cc4cc(F)cc(F)c4)NC(=O)Cn4nc(C(F)F)c5c4C(F)(F)[C@@H]4C[C@H]54)nc(-c4csc(S(C)(=O)=O)n4)cc3=O)c21 (atropisomer, axis not shown; (P)) [Example 17] : reported CC50 at 4 days = ?
Result: > 100 nM
